tgt: Aldehyde dehydrogenase 1A1 (Homo sapiens)
assay-info: qHTS for Inhibitors of the Aldehyde Dehydrogenase Family (ALDH1A1) Confirmatory screens (AID 2061316); note: nearly all actives have a fitted effect of over 65% in size
settings: ALDH inhibition qHTS; series mostly up to 47.3 µM
Inconclusive results are not listed. The source made the active and inactive calls. Calls come from the whole dose curve; as a rule, active = well fitted inhibition curve with a large enough effect; inconclusive = small, poorly fitted or top-dose-only effect; inactive = no such curve, though single readings can be large or run the other way.
Write down one outcome, taken from active, inactive

Past entries and their recorded results:
N#Cc1ccc(-c2ccc(CNc3ccc(N4CCOCC4)cc3)cn2)cc1 :: active
COc1ccc2c(c1)CCc1sc(NC(=O)c3ccc(Br)cc3)nc1-2 :: active
Cc1ccc(N[S+](=O)([O-])c2cc3c(cc2NC2CC2)NC(=O)CC3)cc1C :: active
c1c[nH]c(C2CCN(c3ncc(-c4ccc5c(c4)OCCCO5)s3)CC2)n1 :: active
Cc1ccc(NS(=O)(=O)c2ccc3c(c2)C(Cl)(Cl)C(=O)N3)cc1C :: active
CC(=O)c1cccc(-c2csc(N3CCC(C(N)=O)CC3)n2)c1 :: active

stdin: So what was the verdict on Cc1ccc(OCCn2c3c(c4ccccc42)CN(C(=O)C2CCCCC2)CC3)cc1 in this test?
stdout: active

---

tgt: Aldehyde dehydrogenase, mitochondrial (Homo sapiens) (UniProt P05091)
assay-info: qHTS for Inhibitors of the Aldehyde Dehydrogenase Family (ALDH2) Primary screen (AID 2061308);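 note: plate controls were vehicle for no effect and reference inhibitor for full effect; nearly all actives have a fitted effect of over 55% in size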
settings: ALDH2 enzyme inhibition qHTS, 1536-well; series mostly up to 56 µM
Results filed as inconclusive are left out. Activity calls are given as the source filed them. The call rests on the fitted dose curve; in most records, active means well fitted inhibition curve with a large enough effect; inconclusive means small, poorly fitted or top-dose-only effect; inactive means flat fitted curve, though single readings scatter.
Write down one outcome, taken from active, inactive

stdin: So what was the verdict on C=C(C)C(=O)O[C@H]1CC2=CC(C/C(C)=C\[C@H]3OC(=O)C(=C)[C@H]13)OC2=O (some centres undefined) in this test?
stdout: inactive

---

assay-info: BET inhibitor-based combinations targeting novel dependencies in MECOM-rearranged (r) AML: AML-194 cell line (AID 2202237; note: nearly all actives have a fitted effect of over 40% in size)
settings: AML-194 (MECOM-r AML) viability, CellTiter-Glo, 48 h; series mostly up to 46 µM
Records with an inconclusive call do not appear. Active and inactive are the calls of the source. Calls follow the shape of the dose curve; as a rule, active = well fitted inhibition curve with a large enough effect; inconclusive = small, poorly fitted or top-dose-only effect; inactive = flat fitted curve, though single readings scatter.
Write down one outcome, taken from YES (active), NO (inactive)

Past entries and their recorded results:
COc1cc(N2CCN(C)CC2)ccc1Nc1ncc2c(n1)N(C)c1ccccc1C(=O)N2C :: YES
CNC(=O)Cn1cc(-c2ccc3c(c2)C(F)CC32NC(=O)N(CC(=O)N(Cc3ccc(F)cc3)[C@@H](C)C(F)(F)F)C2=O)cn1 (stereo partly drawn) :: NO
O=C1CC[C@H](N2Cc3c(OCc4ccc(CN5CCOCC5)cc4)cccc3C2=O)C(=O)N1 :: NO
Nc1ncc(C(=O)NC2CN(C(=O)C3CC3)C2)c2ccc(-c3cccc(F)c3)nc12 :: NO
C[C@@H](Oc1cc(C(=O)Nc2ccc(C(=O)N3CCN(C)CC3)cc2)nnc1N)c1c(Cl)ccc(F)c1Cl :: YES

stdin: So what was the verdict on C=CCN1C[C@H](C(=O)N(CCCN(C)C)C(=O)NCC)CC2c3cccc4[nH]cc(c34)C[C@H]21 (stereo partly drawn) in this test?
stdout: NO

stdin: So what was the verdict on COc1cc2c(Oc3ccc4[nH]c(C)cc4c3F)ccnc2cc1OCC1(N)CC1 in this test?
stdout: YES

stdin: So what was the verdict on CCNCCc1ccc(CN(CC)c2cc(OC)ccc2[C@@H]2CCc3cc(O)ccc3C2)cc1 in this test?
stdout: YES

stdin: So what was the verdict on COc1ccc([C@@H]2CC(=O)c3c(O)cc(O[C@@H]4O[C@H](CO[C@@H]5O[C@@H](C)[C@H](O)[C@@H](O)[C@H]5O)[C@@H](O)[C@H](O)[C@H]4O)cc3O2)cc1O in this test?
stdout: NO

stdin: So what was the verdict on C[C@@H]1COCCN1c1cc(-c2ccnn2C)c2ccnc(-c3ccn[nH]3)c2n1 in this test?
stdout: YES

stdin: So what was the verdict on CO[C@H]1/C=C\C=C(\C)C(=O)NC2=CC(=O)C(NCCN(C)C)=C(C[C@@H](C)C[C@H](OC)[C@H](O)[C@@H](C)/C=C(/C)[C@@H]1OC(N)=O)C2=O in this test?
stdout: YES

stdin: So what was the verdict on CC(C)OC(=O)[C@H](C)N[P@](=O)(OC[C@H]1O[C@@H](n2ccc(=O)[nH]c2=O)[C@](C)(F)[C@@H]1O)Oc1ccccc1 in this test?
stdout: NO

stdin: So what was the verdict on CNC(=O)c1ccc(N2C(=S)N(c3ccc(C#N)c(C(F)(F)F)c3)C(=O)C2(C)C)cc1F in this test?
stdout: NO

---

assay-info: BET inhibitor-based combinations targeting novel dependencies in MECOM-rearranged (r) AML: AML-194 cell line (AID 2202237)
settings: AML-194 (MECOM-r AML) viability, CellTiter-Glo, 48 h; series mostly up to 46 µM
Results filed as inconclusive are left out. The source made the active and inactive calls. Calls come from the whole dose curve; as a rule, active = well fitted inhibition curve with a large enough effect; inconclusive = small, poorly fitted or top-dose-only effect; inactive = flat fitted curve, though single readings scatter.
Write down one outcome, taken from active, inactive

Past entries and their recorded results:
NC(=O)C1=C(O)[C@@]2(O)C(=O)C3=C(O)c4c(O)cccc4C[C@H]3C[C@H]2CC1=O :: active
CN(C)CCN1C(=O)c2cccc3cc(NC(N)=O)cc(c23)C1=O :: active
COc1cc(OC)c(NC(=O)Nc2cc(C)on2)cc1Cl :: inactive
C=C1CCC[C@]2(C)C=C3OC(=O)C(C)=C3C[C@@H]12 :: inactive
Nc1[nH]nc2nnc(-c3c(-c4ccccc4)nn4ccccc34)cc12 :: inactive
Cc1[nH]c(/C=C2\C(=O)Nc3ccc(S(=O)(=O)Cc4c(Cl)cccc4Cl)cc32)c(C)c1C(=O)N1CCC[C@@H]1CN1CCCC1 :: active
O=C(Nc1cc(Oc2cc(F)c(NC(=O)C3(C(=O)Nc4ccc(F)cc4)CC3)cc2F)ccn1)C1CC1 :: active
CN1CCCN(C(=O)c2cccc(-c3ccc(/C=C4/C(=O)Nc5ccc(Cl)cc54)o3)c2)CC1 :: active

stdin: So what was the verdict on CC(C)n1cc(-c2ccc3c(c2)N(C)CC3)c2c(NS(=O)(=O)c3ccn(C)n3)ccnc21 in this test?
stdout: inactive

stdin: So what was the verdict on CCC(=O)O[C@]1(C(=O)CO)CC[C@H]2[C@@H]3CCC4=CC(=O)CC[C@]4(C)[C@H]3CC[C@@]21C in this test?
stdout: inactive

stdin: So what was the verdict on NC1=N[C@@]2(c3cc(NC(=O)c4ccc(F)cn4)ccc3F)COC[C@H]2CS1 in this test?
stdout: inactive

---

assay-info: BET inhibitor-based combinations targeting novel dependencies in MECOM-rearranged (r) AML: SET-2 cell line (AID 2202231);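 note: plate controls were DMSO treated cells for no effect and wells without cells for full effect; nearly all actives have a fitted effect of over 35% in size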
settings: SET-2 AML cells viability, CellTiter-Glo luminescence, 48 h; hits give low values, concentration not given here
Records with an inconclusive call do not appear. Activity calls are given as the source filed them. Calls follow the shape of the dose curve; as a rule, active = well fitted inhibition curve with a large enough effect; inconclusive = small, poorly fitted or top-dose-only effect; inactive = no such curve, though single readings can be large or run the other way.
metric-name: viability

Example entries and their recorded answers appear below.
c1ccc2[nH]c(-c3cscn3)nc2c1 :: 111% (inactive)
CC(C)c1c(-c2ccccc2)nc2c(C#N)c[nH]n2c1=O :: 118% (inactive)
NC[C@H]1O[C@H](O[C@H]2[C@H](O)[C@@H](O[C@H]3O[C@H](CO)[C@@H](O)[C@H](N)[C@H]3O)[C@H](N)C[C@@H]2N)[C@H](N)C[C@@H]1O :: 115% (inactive)
COc1cc(-c2cn(C)c(=O)c3cnccc23)cc(OC)c1CN(C)C :: 106% (inactive)
CONC(=O)c1ccccc1Nc1cc(Nc2cc(C)nn2C(C)C)ncc1Cl :: 86.2% (inactive)
CNCCN(C)Cc1cn[nH]c1-c1ccc(OC2CC(OCCC3CCOCC3)C2)cc1 (centres undefined) :: 95.3% (inactive)
CS(=O)(=O)c1ccc([C@@H](CC2CCCC2)C(=O)Nc2nccs2)cc1 :: 79.4% (inactive)
Cc1nc(NC(=O)N2CCC[C@H]2C(N)=O)sc1-c1csc(C(C)(C)C)n1 :: 98.3% (inactive)

stdin: Give a short answer stating reported viability for C=CC(=O)Nc1ccc(F)c(-c2ncnc3[nH]cc(C(=O)OCC)c23)c1 .
stdout: 83.4% (inactive)

---

assay-info: BET inhibitor-based combinations targeting novel dependencies in MECOM-rearranged (r) AML: UCSD-AML1 cell line (AID 2202235); note: nearly all actives have a fitted effect of over 40% in size
settings: UCSD-AML1 AML cells viability, CellTiter-Glo, 48 h; series mostly up to 46 µM
Inconclusive results are not listed. Active and inactive are the calls of the source. Calls follow the shape of the dose curve; as a rule, active = well fitted inhibition curve with a large enough effect; inconclusive = small, poorly fitted or top-dose-only effect; inactive = no such curve, though single readings can be large or run the other way.
Write down one outcome, taken from 1 (active), 0 (inactive)

Past entries and their recorded results:
COc1ccnc(CS(=O)c2nc3ccc(OC(F)F)cc3[nH]2)c1OC (stereo not drawn) :: 0
O=C(Nc1ccc(OC(F)(F)Cl)cc1)c1cnc(N2CC[C@@H](O)C2)c(-c2ccn[nH]2)c1 :: 0
C[C@H]1O[C@@H](O[C@H]2[C@@H](O)C[C@H](O[C@H]3[C@@H](O)C[C@H](O[C@H]4CC[C@@]5(C)[C@H](CC[C@@H]6[C@@H]5C[C@@H](O)[C@]5(C)[C@@H](C7=CC(=O)OC7)CC[C@]65O)C4)O[C@@H]3C)O[C@@H]2C)C[C@H](O)[C@@H]1O :: 1
COc1cc(=C2C=c3ccccc3=N2)[nH]/c1=C/c1[nH]c(C)cc1C :: 1
Cc1c(NC(=O)c2cc(C(N)=O)nc3cc(F)ccc23)c(C(F)(F)F)nn1Cc1ccc(C(C)(C)C)cc1 :: 0

stdin: So what was the verdict on Clc1ccc(-c2nc3sccn3c2/C=N/OCc2ccc(Cl)c(Cl)c2)cc1 in this test?
stdout: 0

stdin: So what was the verdict on Clc1cccc(C(c2ccc3nc[nH]c3c2)n2ccnc2)c1 (stereo not drawn) in this test?
stdout: 0

stdin: So what was the verdict on CCC[C@H](Nc1nc(-c2ccc(NC(=O)NCC)c(OC)c2)ncc1C)c1cccnc1 in this test?
stdout: 1
